Cited source: patent US20210330611A1

Test system: primary rat microglia
MEASUREMENT_PARAMETERS: rat
Where a name gives a salt, the structure may show the parent alone.
// reported LPS % cell toxicity for each item listed
All answers are understood in %, so give the number only.

Illustrative cases are given below, each with its answer.
MOLECULE: C[C@]12CCC(=O)C=C1C=C[C@@H]1[C@@H]2CC[C@@]2(C)[C@H]1CC[C@@]2(O)CCC(=O)O [Canrenoic Acid, Potassium Salt]
REPORTED_RESULT: 0
--
MOLECULE: CC(=O)N1CCN(c2ccc(OCC3COC(Cn4ccnc4)(c4ccc(Cl)cc4Cl)O3)cc2)CC1 (centres unmarked) [Ketoconazole]
REPORTED_RESULT: 0
--
MOLECULE: CCc1cn([C@H]2C[C@H](O)[C@@H](CO)O2)c(=O)[nH]c1=O [Edoxudine]
REPORTED_RESULT: 0
--
MOLECULE: CCOc1cc(CC(=O)N[C@@H](CC(C)C)c2ccccc2N2CCCCC2)ccc1C(=O)O [Repaglinide]
REPORTED_RESULT: 0
--
MOLECULE: N=C(N)NC(=O)c1nc(Cl)c(N)nc1N [Amiloride]
REPORTED_RESULT: 0
--
MOLECULE: CC(=O)Nc1ccc(O)cc1 [Acetaminophen]
REPORTED_RESULT: 0
--
MOLECULE: NCCCCCC(=O)O [Aminocaproic Acid]
REPORTED_RESULT: 0
--
MOLECULE: CO[C@H]1/C=C/O[C@@]2(C)Oc3c(C)c(O)c4c(O)c(c(/C=N/N5CCN(C6CCCC6)CC5)c(O)c4c3C2=O)NC(=O)/C(C)=C\C=C\[C@H](C)[C@H](O)[C@@H](C)[C@@H](O)[C@@H](C)[C@H](OC(C)=O)[C@@H]1C [Rifapentine]
REPORTED_RESULT: 0

Now for another entry.
Consider the molecule NC(=O)NO [Hydroxyurea] and give its measured LPS % cell toxicity.
1

* * *

Tested on: fibrin- and LPS-induced microglia activation
EXPERIMENT_DESCRIPTION: cells
Type: cell-based, rat
MEASUREMENT_PARAMETERS: quadrant by fibrin and LPS inhibition in HTS of 1907 compounds
Structures can show the parent of a compound that is named as a salt.

COMPOUND: COc1ccc(-n2nc(CCC(=O)N(C)O)cc2-c2ccc(Cl)cc2)cc1 [Tepoxalin, reference compound]
TESTED_ON: fibrin- and LPS-induced microglia activation
Quadrant (FIG. 5b): Q2
--
COMPOUND: CCCCC(CC)CNC(=N)NC(=N)NCCCCCCNC(=N)NC(=N)NCC(CC)CCCC (stereo not drawn) [Alexidine Hydrochloride]
TESTED_ON: fibrin- and LPS-induced microglia activation
Quadrant (FIG. 5b): Q2
--
COMPOUND: C[C@@H]1C[C@H]2[C@@H]3CCC4=CC(=O)C=C[C@]4(C)[C@@]3(F)[C@@H](O)C[C@]2(C)[C@H]1C(=O)CO
TESTED_ON: fibrin- and LPS-induced microglia activation
Quadrant (FIG. 5b): Q2

* * *

System: primary rat microglia
EXPERIMENT_DESCRIPTION: Cell toxicity (dead cells, size <150 μm2) in coated fibrin (cFib) assay;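 note: share of dead cells sized under 150 µm2 at 10 µM in fibrin-stimulated microglia HTS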
MEASUREMENT_PARAMETERS: primary microglia HTS, fibrin stimulation; decreased size (<150 μm^2) as marker of toxicity
MEASURED_QUANTITY: Fibrin % cell toxicity (%)
Lab book: enter the figure in %, no units written.

Study these solved cases before continuing.
MOLECULE: O=[N+]([O-])OCC(CO[N+](=O)[O-])O[N+](=O)[O-]
REPORTED_RESULT: 1
--
MOLECULE: C[C@@H]1C[C@H]2[C@@H]3CCC4=CC(=O)C=C[C@]4(C)[C@@]3(F)[C@@H](O)C[C@]2(C)[C@H]1C(=O)CO [Desoximetasone]
REPORTED_RESULT: 5

Form entry - test system: primary rat microglia; read-out: Fibrin % cell toxicity; molecule: "CCCCOc1cc(C(=O)OCCN(CC)CC)ccc1N"
1

Also, "Cc1ncc(CNC(=O)N(CCCl)N=O)c(N)n1" please.
1

Next molecule: "CCCCCCCC/C=C\CCCCCCCC(=O)O"
1

Param item: CC(=O)Nc1ncc([N+](=O)[O-])s1 [Nithiamide]
1
